Assay: Solubility screening of selected solvents
Assay type: physicochemical
Conditions: toluene, 0 °C, organic solvent or mixture, thermodynamic from solid
quantity: solubility (mg/mL)

molecule | unit.label | endpoint.result
O=P(c1ccccc1)(c1ccccc1)c1ccccc1 [TPPO, Triphenylphosphine oxide] | mg/mL | 42.9
CC(C)(C)OC(=O)N1C[C@@H](F)C[C@H]1CON1C(=O)c2ccccc2C1=O [compound-6] | mg/mL | 42.1

---

Assay: Solubility screening of selected solvents
Assay type: physicochemical
Conditions: 2-propanol, organic solvent or mixture, thermodynamic from solid

molecule | solubility / mg/mL
O=P(c1ccccc1)(c1ccccc1)c1ccccc1 [TPPO, Triphenylphosphine oxide] | 46.5

---

Measured solubility values are reported for all entries that follow.
Experiment: Solubility screening of selected solvents
Format: physicochemical
Details: toluene, organic solvent or mixture, thermodynamic from solid

compound | solubility [mg/mL]
O=P(c1ccccc1)(c1ccccc1)c1ccccc1 [TPPO, Triphenylphosphine oxide] | 44.3
CC(C)(C)OC(=O)N1C[C@@H](F)C[C@H]1CON1C(=O)c2ccccc2C1=O | 46.7

---

Assay: Solubility screening of selected solvents
Format: physicochemical
Details: 2-propanol, 0 °C, organic solvent or mixture, thermodynamic from solid
quantity: solubility (mg/mL)

compound | quantity | endpoint.result
O=P(c1ccccc1)(c1ccccc1)c1ccccc1 [TPPO, Triphenylphosphine oxide] | solubility | 25.4
